- test details: Second order rate constant, TCO derivatives with tetrazine 2.18, pseudo-first order, UV spectroscopy in MeCN
- measurement context: reaction with 2.18 in MeCN at 20° C.; estimated from k1′
Consider the following compounds; for each one, report its k2.

| compound | k2 |
| --- | --- |
| C[Si](C)(C)CCOC(=O)N[C@H]1C/C=C/[C@H](O)CC[C@H]1CO | 104 M⁻¹ s⁻¹ |
| COC(=O)[C@H]1CC[C@@H](O)/C=C/C[C@@H]1NC(=O)OCC[Si](C)(C)C | 39 M⁻¹ s⁻¹ |
| C[Si](C)(C)CCOC(=O)N1CC/C=C/C(O)CC1 (stereo not shown) | 277 M⁻¹ s⁻¹ |
| CN(C)C(=O)OC[C@H]1CC[C@H](OC(=O)N(C)C)/C=C/C[C@H]1N (stereo in doubt) | 38 M⁻¹ s⁻¹ |
| COC(=O)[C@]1(O)CC/C=C/[C@H](OC(=O)N(C)c2ccc([C@@H](O)C(=O)O)cc2)CC1 | 134 M⁻¹ s⁻¹ |

Okay, here is my list. What is k2 for each of these?
1. COC(=O)[C@H]1CC[C@@H](OC(=O)N(C)C)/C=C/C[C@@H]1N
2. CN(C)C(=O)O[C@@H]1/C=C/CCN(C(=O)OCC[Si](C)(C)C)CC1 (racemic)

### Response
1. 27 M⁻¹ s⁻¹
2. 80 M⁻¹ s⁻¹
